Reference for the values: patent US20220185900A1

- assayed_system: T1, hRET.mmh (human, UniProt P07949 29-635, biotinylated in the ELISA of Example 4 (biot-hRET.mmh); not in the SPR of Example 3)
- T1 construct: also called biot-hRET.mmh; soluble monomeric human RET
- assay_summary: SPR Biacore T200, mAb capture, 37 C
parameter_measured: kon (M⁻¹ s⁻¹)
One number for each entry, in M⁻¹ s⁻¹.

H4H8060P (antibody, human IgG4, V domains shown, human IgG4 Fc (H4H prefix)) VH: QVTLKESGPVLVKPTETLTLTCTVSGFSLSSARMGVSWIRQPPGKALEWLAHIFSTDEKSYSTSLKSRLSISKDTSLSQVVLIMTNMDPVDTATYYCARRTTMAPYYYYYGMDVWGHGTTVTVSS VL: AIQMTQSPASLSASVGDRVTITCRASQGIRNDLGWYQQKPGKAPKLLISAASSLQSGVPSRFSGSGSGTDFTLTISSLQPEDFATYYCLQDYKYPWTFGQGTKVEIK ... 1.11e+06
H4H8067P (antibody, human IgG4, V domains shown, human IgG4 Fc (H4H prefix)) VH: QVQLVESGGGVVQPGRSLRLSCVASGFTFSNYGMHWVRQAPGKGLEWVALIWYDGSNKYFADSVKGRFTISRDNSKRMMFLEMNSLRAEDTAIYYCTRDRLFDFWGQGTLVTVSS VL: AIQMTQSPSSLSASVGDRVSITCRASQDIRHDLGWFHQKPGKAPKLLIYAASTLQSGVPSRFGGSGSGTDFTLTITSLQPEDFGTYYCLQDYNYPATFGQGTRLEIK ... 159000

Please give kon for each item listed below.
1. H4H8083P (antibody, human IgG4, V domains shown, human IgG4 Fc (H4H prefix)) VH: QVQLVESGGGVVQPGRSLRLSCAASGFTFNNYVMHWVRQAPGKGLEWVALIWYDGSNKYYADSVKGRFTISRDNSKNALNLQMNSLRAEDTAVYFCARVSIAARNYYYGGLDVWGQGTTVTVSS VL: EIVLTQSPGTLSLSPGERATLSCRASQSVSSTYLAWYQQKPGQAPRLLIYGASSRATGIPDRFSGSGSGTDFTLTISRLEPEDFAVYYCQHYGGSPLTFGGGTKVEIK
2. H4H8076P (antibody, human IgG4, V domains shown, human IgG4 Fc (H4H prefix)) VH: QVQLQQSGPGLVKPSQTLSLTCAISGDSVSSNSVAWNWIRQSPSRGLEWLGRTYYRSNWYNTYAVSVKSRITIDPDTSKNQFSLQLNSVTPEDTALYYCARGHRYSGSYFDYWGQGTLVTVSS VL: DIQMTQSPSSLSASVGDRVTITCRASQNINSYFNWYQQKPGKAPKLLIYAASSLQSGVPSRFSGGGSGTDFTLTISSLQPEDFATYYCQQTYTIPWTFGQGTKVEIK
3. H4H8066P (antibody, human IgG4, V domains shown, human IgG4 Fc (H4H prefix)) VH: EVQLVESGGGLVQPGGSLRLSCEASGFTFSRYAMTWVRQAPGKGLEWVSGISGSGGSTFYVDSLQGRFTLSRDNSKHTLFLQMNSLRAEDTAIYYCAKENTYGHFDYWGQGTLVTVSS VL: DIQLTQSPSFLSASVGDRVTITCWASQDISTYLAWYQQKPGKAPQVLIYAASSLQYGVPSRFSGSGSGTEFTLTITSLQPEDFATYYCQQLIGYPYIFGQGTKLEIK

Result:
1. 282000
2. 315000
3. 195000
